Data provenance is PubChem BioAssay.

target: Concanavalin-A (Canavalia ensiformis); experiment: ConA small-molecule binders, primary screen, artefact control for SMM control protein annotation, biochemical, small-molecule microarray, Alexa647 label, 635 nm (AID 1127); conditions: ConA-A647 binding fluorescence, higher = more signal;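 further: z combines 667 nm emission intensity with signal-to-noise across three replicate slides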
Below, each of the compounds is paired with its reported composite z-score value.
Format: numeric value only, no unit, no commentary.

Previously resolved entries follow.
C=CCOC(=O)[C@H]1[C@@H]2C(=O)O[C@@H](c3ccccc3)[C@@H](c3ccccc3)N2[C@@H](c2ccc(OCCOC(=O)[C@H]3C[C@H]4C(=O)N[C@@H](CCCC[N+](C)(C)C)C(=O)N4[C@H]3c3ccc(O)cc3)cc2)[C@]12C(=O)Nc1ccc(I)cc12	0.401
CC1(C)[C@@H]2CC(C(O)C3C=CC4C(=O)N(Cc5ccccc5)C(=O)C4N3n3cnnc3)=C[C@H]1C2 (stereo partly drawn)	0.39

// switching to the query compound
Entry NC(=O)NCC#Cc1ccc2c(c1)[C@]1(C(=O)N2)[C@H](c2ccc(O)cc2)N2[C@H](c3ccccc3)[C@H](c3ccccc3)OC(=O)[C@H]2[C@@H]1C(=O)O , composite z-score reported as 0.411

----------
test: small-molecule binders of probe aInhba, primary screen, biochemical, small-molecule microarray, 635/667 nm fluorescence (AID 1148); conditions: higher = more signal;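 further: score merges 667nm spot fluorescence with signal-to-noise for antibody binding to printed compounds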
Below, each of the compounds is paired with its reported composite z-score value.
Format: numeric value only, no unit, no commentary.

Previously resolved entries follow.
CCCCCCc1nc(-c2cc(C)c(OC)c(C)c2)cc2c1[Si](C(C)C)(C(C)C)OC2	0.131
CC(C)NC(=O)[C@@]1(c2ccc([N+](=O)[O-])cc2)CC(=O)N(C2CCCCC2)[C@@H]1c1ccc(CO)cc1I	0.0497
C=C(C)[C@@H]1CC=C(C(O)C2C=CC3C(=O)N(C)C(=O)C3N2Nc2ccccc2)CC1 (some centres undefined)	0.0013

// switching to the query compound
Entry COc1cc(COC(C)=O)ccc1OC(C)=O , composite z-score reported as 0.257

----------
assay: small-molecule microarray binders of probe aEGFR, primary screen, biochemical, biotinylated probe, 635/667 nm fluorescence (AID 1097); conditions: higher = more signal;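 further: probe is a biotinylated anti-EGFR antibody binding compounds printed on slides; score combines fluorescence near 667 nm and signal to noise of each spot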
Below, each of the compounds is paired with its reported composite z-score value.
Format: numeric value only, no unit, no commentary.

Previously resolved entries follow.
CN1C(=O)C2C=CC(C(O)c3ccc([N+](=O)[O-])cc3)N(N3CCCCC3)C2C1=O (stereo not given)	0.161
CCCCCCc1nc(-c2ccc(OC)nc2)cc2c1[Si](C(C)C)(C(C)C)O[C@H]2c1ccccc1	-0.0674
O=C1N(Cc2ccccc2)c2ccccc2[C@@H]2OC(c3ccc(OCCCO)cc3)=N[C@]12CCS(=O)(=O)c1ccccc1	0.0248
CC(C)NC(=O)[C@@]1(c2ccc([N+](=O)[O-])cc2)CC(=O)N(C2CCCCC2)[C@@H]1c1ccc(CO)cc1I	-0.0185
COc1ccc(CCNC(=O)[C@@H]2c3ccccc3C(=O)N(Cc3ccccc3Cl)[C@H]2c2ccc(CO)cc2)cc1	0.0121
C=CCC(OC(C)=O)[C@@H]1[C@@H](N(Cc2ccc(-c3cccc(C(F)(F)F)c3)o2)C(=O)c2ccc(C)cc2)c2cc(OCCCO)ccc2N1C(=O)Cc1ccc2ccccc2c1 (stereo not given in full)	-0.108
C=CCOC(=O)[C@H]1[C@@H]2C(=O)O[C@@H](c3ccccc3)[C@@H](c3ccccc3)N2[C@@H](c2ccc(OCCOC(=O)[C@H]3C[C@H]4C(=O)N[C@@H](CCCCNC(C)=O)C(=O)N4[C@H]3c3ccc(O)cc3)cc2)[C@]12C(=O)Nc1ccc(I)cc12	-0.0088
NC(=O)NCC#Cc1ccc2c(c1)[C@]1(C(=O)N2)[C@H](c2ccc(O)cc2)N2[C@H](c3ccccc3)[C@H](c3ccccc3)OC(=O)[C@H]2[C@@H]1C(=O)O	-0.191

Entry COc1cc2c(cc1OC)CN(C(=O)[C@@H]1[C@H]3C(=O)O[C@H](c4ccccc4)[C@H](c4ccccc4)N3[C@H](c3ccccc3OCCO)[C@@]13C(=O)Nc1ccc(C#CCCO)cc13)CC2 , composite z-score reported as -0.0624

Entry CC(C)c1ccc(NN2C(C(O)c3ccc(B(O)O)cc3)C=CC3C(=O)N(c4ccccc4)C(=O)C32)cc1 (stereo not given) , composite z-score reported as -0.0179

Entry CC1CC/C=C\[C@H]2OC34C=CCN(C(C)(C)C)C(=O)[C@H]3N(CCO)C(=O)[C@@H]4C2C(=O)O1 (stereo not given in full) , composite z-score reported as -0.312

Entry N#Cc1ccc(NN2C(C(O)C(c3ccccc3)c3ccccc3)C=CC3C(=O)N(c4ccccc4)C(=O)C32)cc1 (stereo not given) , composite z-score reported as 0.0981

Entry C[C@H]1C2[C@H](Cc3ccccc3)NC(=O)[C@]23C(=O)N[C@H](Cc2ccccc2)C(=O)N2CCC[C@H]2C(=O)NC/C=C\C/C=C/C3[C@@H]2O[C@]12C (stereo not given in full) , composite z-score reported as -0.13

Entry C=CCOC(=O)[C@H]1[C@@H]2C(=O)O[C@@H](c3ccccc3)[C@@H](c3ccccc3)N2[C@@H](c2ccc(OCCOC(=O)[C@H]3C[C@H]4C(=O)N[C@@H](CCCCNC(C)=O)C(=O)N4[C@H]3c3cccc(OCCO)c3)cc2)[C@]12C(=O)Nc1ccccc12 , composite z-score reported as -0.0996

Entry O=C(c1ccccc1)N1C(=O)[C@@]2(Cc3ccccc31)N=C(c1ccc(OCCCO)cc1)O[C@H]2c1ccccc1 , composite z-score reported as 0.291
